Target: T1, hGDF11 homodimer (human, UniProt O95390 299-407)
T1 sequence (looked up): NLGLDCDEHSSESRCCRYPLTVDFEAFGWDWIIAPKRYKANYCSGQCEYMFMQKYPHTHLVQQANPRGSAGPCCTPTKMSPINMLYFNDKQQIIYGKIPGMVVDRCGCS
Assay: SPR, antibody captured, 25 nM antigen
Protocol: Equilibrium dissociation constants (KD values) for antigen binding to selected antibodies were determined by surface kinetics using a real-time biosensor surface plasmon resonance assay (BIACORE™ 2000). […] Human GDF8 homodimer, hGDF11 homodimer, or hGDF5 homodimer at 25 nM was injected over the captured antibody surfaces, and antigen-antibody binding and dissociation were monitored in real time at room temperature. […]
Assay endpoint: Kd (nM)
Numbers only, in nM.

22-D3 (antibody, V domains shown) VH: QVQLVQSGGGLVKPGGSLRLSCAASGFTFSSYSMNWVRQAPGKGLEWVSSISSSSSYIYYADSVKGRFTISRDNAKNSLYLQMNSLRAEDTAVYYCARDRGYTFGVDYWGQGTTVTVSS VL: AIQMTQSPSSLSASVGDRVTITCRASQGIRNDLGWYQQKPGKAPKRLIYAASSLQSGVPSRFSGSGSGTEFTLTISSLQPEDFATYYCLQHNSYPYTFGQGTKVEIKR: 1.09

Provide Kd for all items below, preserving their order.
1. 22-E6 (antibody, V domains shown) VH: QVQLVQSGPGLVKPSETLSLTCTVSGGSIITYSYYWGWIRQPPGKGLEWIGTIHHSGSTYYNPSLKSRVTISVDTSKNQFSLTLSSVTAADTAVYYCARDYYDSSGYYYNWFDPWGQGTMVTVSS VL: AIQMTQSPSSLSASVGDRVTITCRASQGIRNDLGWYQQKPGKAPKRLIYAASSLQSGVPSRFSGSGSGTEFTLTISSLQPEDFATYYCLQHNSSPWTFGQGTKVEIKR
2. 21-E9 (antibody, V domains shown) VH: EVQLVQLGPGLVKPSETLSLTCTVSGGSISNSNYYWGWIRQPPGKGLEWIGTTYYSGTTYYNPSLKSRVTISVDTSKNQFSLKLSSVTAADTAVYYCARDYYDSSGYYYNWFDPWGQGTTVTVSS VL: AIQMTQSPSSLSASVGDRVTITCRASQDIRNDLGWYQQKPGKAPKRLIYAASSLQSGVPSRFSGSGSGTEFSLTLSSLQPEDFATYFCLQHHIYPWTFGQGTKVEIKR
3. 1H4-5 (antibody, V domains shown) VH: QVQLVESGGDVVQPGRSLRLSCTASGFTFSSYGMHWVRQAPGRGLEWVAVISFDGKNKYYADSVKGRFTVSRDNSKNTLFLQMNSLRAEDTALYYCAKRIAATGYYYFYGLDVWGQGTTVTVSS VL: EIMMTQSPATLSVSPGERGTLSCRASQSVSSNLAWYQQKPGQAPRLLIYGASTRASGIPARFSGSGSGTEFTLTVSSLQSEDFAVYYCQQYNNWPLTFGGGTKVEIK

1: 0.12; 2: 0.07; 3: 1.48
